- System: 624824-186-R-J3-PDC multicell spheroids, viability
- assayRemarks: Anticancer human tumor 624824-186-R-J3-PDC patient-derived colon adenocarcinoma cell line growth inhibition [PI3K]
- appliedConditions: second compound 0.1 µM; first compound 0.1 µM; stronger effect = lower value
measuredEndpoint: viability, T/C (%)
The reply should be a number in %, with the unit left off.

Worked examples follow.
compound | resultUnits | viability, T/C
CCCS(=O)(=O)Nc1ccc(F)c(C(=O)c2c[nH]c3ncc(-c4ccc(Cl)cc4)cc23)c1F + CC(Nc1ncnc2nc[nH]c12)c1cc2cccc(Cl)c2c(=O)n1-c1ccccc1 | % | 104
CC1(C)CCC(Nc2ncc(C(F)(F)F)c(-c3c[nH]c4c(P(C)(C)=O)c(C#N)ccc34)n2)CN1 (stereo unspecified) + COc1c(OCCCN2CCOCC2)ccc2c3n(c(=NC(=O)c4cnc(N)nc4)nc12)CCN3 | % | 36.6
C=CC(=O)N1CCN(c2nc(=O)n(-c3c(C)ccnc3C(C)C)c3nc(-c4c(O)cccc4F)c(F)cc23)C(C)C1 (stereo unspecified) + Cc1nc(NC(=O)N2CCCC2C(N)=O)sc1-c1ccnc(C(C)(C)C(F)(F)F)c1 | % | 101
CC1(C)CCC(Nc2ncc(C(F)(F)F)c(-c3c[nH]c4c(P(C)(C)=O)c(C#N)ccc34)n2)CN1 (stereo unspecified) + CC(Nc1ncnc2nc[nH]c12)c1cc2cccc(Cl)c2c(=O)n1-c1ccccc1 | % | 89
CC(C)n1nc(-c2ccc3oc(N)nc3c2)c2c(N)ncnc21 + CC(Nc1ccc2c(c1)OCCn1cc(N3C(=O)OCC3C(F)F)nc1-2)C(N)=O | % | 42.3

Suppose we examine the compound CCCS(=O)(=O)Nc1ccc(F)c(C(=O)c2c[nH]c3ncc(-c4ccc(Cl)cc4)cc23)c1F + COc1c(OCCCN2CCOCC2)ccc2c3n(c(=NC(=O)c4cnc(N)nc4)nc12)CCN3 ; what viability, T/C value has been reported? 66

viability, T/C lookup needed for C#Cc1c(F)ccc2cc(O)cc(-c3ncc4c(N5CC6CCC(C5)N6)nc(OCC56CCCN5CC(F)C6)nc4c3F)c12 (stereo unspecified) + Cc1nc(NC(=O)N2CCCC2C(N)=O)sc1-c1ccnc(C(C)(C)C(F)(F)F)c1 , thanks. 98.2

// returns reported viability, T/C for input Cn1ncc(Cl)c1-c1cc(C(=O)NC(CN)Cc2cccc(F)c2)sc1Cl (stereo unspecified) + CC(Nc1ccc2c(c1)OCCn1cc(N3C(=O)OCC3C(F)F)nc1-2)C(N)=O 97.3

----------
This section presents compounds with their documented IC50 values.
- Test system: 624824-186-R-J3-PDC multicell spheroids, viability
- assayRemarks: Anticancer human tumor 624824-186-R-J3-PDC cell line growth inhibition [PI3K];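 also: spheroids exposed to agents for seven days before luminescence read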
- appliedConditions: curve of first compound; second compound 0.1 µM

Worked examples follow.
compound | valueMeasured
Cn1ncnc1[C@H]1c2n[nH]c(=O)c3cc(F)cc(c23)N[C@@H]1c1ccc(F)cc1 + Cc1nc(NC(=O)N2CCCC2C(N)=O)sc1-c1ccnc(C(C)(C)C(F)(F)F)c1 | > 0.1 µM
CC(=O)c1c(C)c2cnc(Nc3ccc(N4CCNCC4)cn3)nc2n(C2CCCC2)c1=O + Cc1nc(NC(=O)N2CCCC2C(N)=O)sc1-c1ccnc(C(C)(C)C(F)(F)F)c1 | > 0.1 µM

Fill in: IC50 of Cn1ncc(Cl)c1-c1cc(C(=O)NC(CN)Cc2cccc(F)c2)sc1Cl (centres undefined) + CC(Nc1ccc2c(c1)OCCn1cc(N3C(=O)OCC3C(F)F)nc1-2)C(N)=O is ___ > 10 µM

// returns reported IC50 for input CC(C)NCC(C(=O)N1CCN(c2ncnc3c2C(C)CC3O)CC1)c1ccc(Cl)cc1 (centres undefined) + CC(Nc1ncnc2nc[nH]c12)c1cc2cccc(Cl)c2c(=O)n1-c1ccccc1 > 10 µM

----------
- Tested on: 624824-186-R-J3-PDC multicell spheroids, viability
- assayRemarks: Anticancer human tumor 624824-186-R-J3-PDC cell line growth inhibition [PI3K];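 also: spheroids exposed to agents for seven days before luminescence read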;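 as to viability, T/C: luminescent signal used as a stand-in for spheroid viability; percent viability relative to DMSO vehicle control wells taken as 100%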
- appliedConditions: second compound 1 µM; first compound 0.1 µM; stronger effect = lower value
measuredEndpoint: viability, T/C (%)
Write the value in % as a bare number.

Examples with their reported viability, T/C follow.
compound | measuredEndpoint | valueMeasured
CC1(C)CCC(Nc2ncc(C(F)(F)F)c(-c3c[nH]c4c(P(C)(C)=O)c(C#N)ccc34)n2)CN1 (stereo unspecified) + CC(Nc1ncnc2nc[nH]c12)c1cc2cccc(Cl)c2c(=O)n1-c1ccccc1 | viability, T/C | 86.2
CC(Cn1ccc(-c2ccc(C#N)c(Cl)c2)n1)NC(=O)c1cc(C(C)O)[nH]n1 (stereo unspecified) + Cc1nc(NC(=O)N2CCCC2C(N)=O)sc1-c1ccnc(C(C)(C)C(F)(F)F)c1 | viability, T/C | 101
Cn1ncc(Cl)c1-c1cc(C(=O)NC(CN)Cc2cccc(F)c2)sc1Cl (stereo unspecified) + Cc1nc(NC(=O)N2CCCC2C(N)=O)sc1-c1ccnc(C(C)(C)C(F)(F)F)c1 | viability, T/C | 87
CC(C)n1nc(-c2ccc3oc(N)nc3c2)c2c(N)ncnc21 + COc1c(OCCCN2CCOCC2)ccc2c3n(c(=NC(=O)c4cnc(N)nc4)nc12)CCN3 | viability, T/C | 18.6
Cn1ncc(Cl)c1-c1cc(C(=O)NC(CN)Cc2cccc(F)c2)sc1Cl (stereo unspecified) + CC(Nc1ncnc2nc[nH]c12)c1cc2cccc(Cl)c2c(=O)n1-c1ccccc1 | viability, T/C | 102

Here's the next entry for you.
Entry under review: CC(=O)c1c(C)c2cnc(Nc3ccc(N4CCNCC4)cn3)nc2n(C2CCCC2)c1=O + CC(Nc1ncnc2nc[nH]c12)c1cc2cccc(Cl)c2c(=O)n1-c1ccccc1 . Reported viability, T/C? 109

----------
- System: 624824-186-R-J3-PDC multicell spheroids, viability
- assayRemarks: Anticancer human tumor 624824-186-R-J3-PDC cell line growth inhibition [PI3K];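 also: spheroids exposed to agents for seven days before luminescence read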;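 as to viability, T/C: luminescent signal used as a stand-in for spheroid viability; percent viability relative to DMSO vehicle control wells taken as 100%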
- appliedConditions: second compound 10 µM; first compound 3.16 µM; stronger effect = lower value
Under this convention, y denotes viability, T/C strictly below 90% and n denotes viability, T/C at or above 90%.

Look over these answered cases.
compound | classification
CC(Cn1ccc(-c2ccc(C#N)c(Cl)c2)n1)NC(=O)c1cc(C(C)O)[nH]n1 (stereo not given) + Cc1nc(NC(=O)N2CCCC2C(N)=O)sc1-c1ccnc(C(C)(C)C(F)(F)F)c1 | y
C=CC(=O)N1CCN(c2nc(=O)n(-c3c(C)ccnc3C(C)C)c3nc(-c4c(O)cccc4F)c(F)cc23)C(C)C1 (stereo not given) + CC(Nc1ncnc2nc[nH]c12)c1cc2cccc(Cl)c2c(=O)n1-c1ccccc1 | n
CC1(C)CCC(CN2CCN(c3ccc(C(=O)NS(=O)(=O)c4ccc(NCC5CCOCC5)c([N+](=O)[O-])c4)c(Oc4cnc5[nH]ccc5c4)c3)CC2)=C(c2ccc(Cl)cc2)C1 + CC(Nc1ncnc2nc[nH]c12)c1cc2cccc(Cl)c2c(=O)n1-c1ccccc1 | n

Now let's try a different one.
# check: viability, T/C < 90% for C[C@@H](NC(=O)c1ncnc(N)c1Cl)c1ncc(C(=O)Nc2cc(C(F)(F)F)c(Cl)cn2)s1 + CC(Nc1ncnc2nc[nH]c12)c1cc2cccc(Cl)c2c(=O)n1-c1ccccc1 y

----------
- System: 624824-186-R-J3-PDC multicell spheroids, viability
- assayRemarks: Anticancer human tumor 624824-186-R-J3-PDC cell line growth inhibition [PI3K];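 also: spheroids exposed to agents for seven days before luminescence read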;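 as to viability, T/C: luminescent signal used as a stand-in for spheroid viability; percent viability relative to DMSO vehicle control wells taken as 100%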
- appliedConditions: second compound 0.316 µM; first compound 0.0316 µM; stronger effect = lower value
measuredEndpoint: viability, T/C (%)
Write down the numeric answer in % and omit the unit.

compound | viability, T/C / %
Cn1nccc1Nc1nccc(-c2ccn(C(CO)c3ccc(Cl)c(F)c3)c(=O)c2)n1 (stereo unspecified) + Cc1nc(NC(=O)N2CCCC2C(N)=O)sc1-c1ccnc(C(C)(C)C(F)(F)F)c1 | 106
Cn1nccc1Nc1nccc(-c2ccn(C(CO)c3ccc(Cl)c(F)c3)c(=O)c2)n1 (stereo unspecified) + COc1c(OCCCN2CCOCC2)ccc2c3n(c(=NC(=O)c4cnc(N)nc4)nc12)CCN3 | 46.3
CC1(C)CCC(Nc2ncc(C(F)(F)F)c(-c3c[nH]c4c(P(C)(C)=O)c(C#N)ccc34)n2)CN1 (stereo unspecified) + Cc1nc(NC(=O)N2CCCC2C(N)=O)sc1-c1ccnc(C(C)(C)C(F)(F)F)c1 | 97.5
CC(C)NCC(C(=O)N1CCN(c2ncnc3c2C(C)CC3O)CC1)c1ccc(Cl)cc1 (stereo unspecified) + CC(Nc1ncnc2nc[nH]c12)c1cc2cccc(Cl)c2c(=O)n1-c1ccccc1 | 103
C[C@@H](NC(=O)c1ncnc(N)c1Cl)c1ncc(C(=O)Nc2cc(C(F)(F)F)c(Cl)cn2)s1 + CC(Nc1ncnc2nc[nH]c12)c1cc2cccc(Cl)c2c(=O)n1-c1ccccc1 | 96.8
Cn1ncc(Cl)c1-c1cc(C(=O)NC(CN)Cc2cccc(F)c2)sc1Cl (stereo unspecified) + COc1c(OCCCN2CCOCC2)ccc2c3n(c(=NC(=O)c4cnc(N)nc4)nc12)CCN3 | 54.2
C[C@@H](NC(=O)c1ncnc(N)c1Cl)c1ncc(C(=O)Nc2cc(C(F)(F)F)c(Cl)cn2)s1 + COc1c(OCCCN2CCOCC2)ccc2c3n(c(=NC(=O)c4cnc(N)nc4)nc12)CCN3 | 54.4
CCCS(=O)(=O)Nc1ccc(F)c(C(=O)c2c[nH]c3ncc(-c4ccc(Cl)cc4)cc23)c1F + Cc1nc(NC(=O)N2CCCC2C(N)=O)sc1-c1ccnc(C(C)(C)C(F)(F)F)c1 | 115
CCN1CCN(Cc2ccc(Nc3ncc(F)c(-c4cc(F)c5nc(C)n(C(C)C)c5c4)n3)nc2)CC1 + CC(Nc1ccc2c(c1)OCCn1cc(N3C(=O)OCC3C(F)F)nc1-2)C(N)=O | 105
C=CC(=O)N1CCN(c2nc(=O)n(-c3c(C)ccnc3C(C)C)c3nc(-c4c(O)cccc4F)c(F)cc23)C(C)C1 (stereo unspecified) + COc1c(OCCCN2CCOCC2)ccc2c3n(c(=NC(=O)c4cnc(N)nc4)nc12)CCN3 | 48.7

624824-186-R-J3-PDC multicell spheroids, viability / viability, T/C / CC(Cn1ccc(-c2ccc(C#N)c(Cl)c2)n1)NC(=O)c1cc(C(C)O)[nH]n1 (stereo unspecified) + Cc1nc(NC(=O)N2CCCC2C(N)=O)sc1-c1ccnc(C(C)(C)C(F)(F)F)c1 : value? 107
